Form field: OD value (one value per entry).
Target: T1, human Nectin-4 extracellular antigen hNectin-4-His (human, UniProt Q96NY8 32-349)
T1 construct: C-terminal 8xHis tag included
T1 sequence: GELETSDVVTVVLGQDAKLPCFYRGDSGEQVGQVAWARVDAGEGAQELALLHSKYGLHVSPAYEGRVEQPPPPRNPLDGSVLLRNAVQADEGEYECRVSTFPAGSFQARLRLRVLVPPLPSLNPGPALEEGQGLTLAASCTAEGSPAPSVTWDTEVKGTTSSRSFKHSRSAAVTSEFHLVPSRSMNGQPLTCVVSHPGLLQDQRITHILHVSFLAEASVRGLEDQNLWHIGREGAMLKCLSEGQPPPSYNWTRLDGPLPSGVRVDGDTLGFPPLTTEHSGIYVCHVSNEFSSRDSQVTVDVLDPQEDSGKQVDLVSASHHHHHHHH
Assay: ELISA, phage scFv supernatant 1:50
Protocol: The supernatants were diluted 50-fold, and the binding OD values of the diluted supernatants to hNectin-4-His were measured by ELISA. The samples were serially 3-fold diluted, and the EC₅₀ titer for the binding of the supernatants to the antigen was measured by ELISA. […] The light chain variable region sequence is set forth in SEQ ID NO: 25. The OD value is the measurement of ELISA, and the EC₅₀ value denotes the EC₅₀ value of the binding activity titer of the supernatant to the antigen.

binder	OD value
1G8-1F7 scFv (scFv, V domains shown, phage clone supernatant) VH: EVQLVESGGGLVQPGGSLRLSCAASGYSFYGYAMSWVRQAPGKGLEWVSAIDAIGGNKRYADSVKGRFTISRDNSKNTLYLQMNSLRAEDTAVYYCARQTEDRSYGYDLDYWGQGTLVTVSS VL: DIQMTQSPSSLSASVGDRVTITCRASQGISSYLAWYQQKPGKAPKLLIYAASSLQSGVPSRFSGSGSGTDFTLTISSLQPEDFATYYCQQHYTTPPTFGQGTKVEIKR	1.58 OD
1F3-1E9 scFv (scFv, V domains shown, phage clone supernatant) VH: EVQLVESGGGLVQPGGSLRLSCAASGFTFDDYAMSWVRQAPGKGLEWVSGIKPSSWTTYYADSVKGRFTISRDNSKNTLYLQMNSLRAEDTAVYYCARAELLAFDVYTASDYWGQGTLVTVSS VL: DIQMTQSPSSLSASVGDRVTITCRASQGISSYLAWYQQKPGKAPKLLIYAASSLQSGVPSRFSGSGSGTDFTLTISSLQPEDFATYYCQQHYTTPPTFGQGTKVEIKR	1.55 OD

Proceeding to the next binder to report its OD value.
query: OD value lookup needed for 1G8-2F11 scFv (scFv, V domains shown, phage clone supernatant) VH: EVQLVESGGGLVQPGGSLRLSCAASGYTFGSNAMSWVRQAPGKGLEWVSRISPDSSGISYADSVKGRFTISRDNSKNTLYLQMNSLRAEDTAVYYCARQTEDRSYGYDLDYWGQGTLVTVSS VL: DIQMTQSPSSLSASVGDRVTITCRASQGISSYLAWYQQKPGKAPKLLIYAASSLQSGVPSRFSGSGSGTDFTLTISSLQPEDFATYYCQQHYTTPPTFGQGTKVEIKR , thanks.
result: 1.57 OD
